From: ChEMBL document CHEMBL3407383

# PROTOCOL DESCRIPTION: Cytotoxicity against human HL60 cells assessed as effect on cell cycle at 10 uM
# Assay type: cell-based
# APPLIED CONDITIONS: hl-60, 10 µM
RECORDED METRIC: Activity

CHEMICAL STRING | RECORDED METRIC | MEASURED RESULT
O=C1[C@@H]2[C@H]3c4ccccc4[C@H](c4ccccc43)[C@@H]2C(=O)N1CC#CCN1CCC(n2c(=O)[nH]c3ccccc32)CC1 | Activity | Non-toxic
COc1ccc(CCN(C)CC#CCN2C(=O)[C@@H]3[C@H]4c5ccccc5[C@H](c5ccccc54)[C@@H]3C2=O)cc1OC | Activity | Toxic
O=C1[C@@H]2[C@H]3c4ccccc4[C@H](c4ccccc43)[C@@H]2C(=O)N1CC#CCN1CCN(c2ccccc2)CC1 | Activity | Non-toxic
